The measurements presented in this section are drawn from patent US8017611B2.

# % Axl tyrosine kinase inhibition at 1 μM concentration annotations
Biological target: recombinant Axl tyrosine kinase (Homo sapiens, UniProt P30530)
Construct: encompassing amino acids 473 to 894 of Axl; GST (N); made in house; host or cells: SF126 insect cells
Sequence (P30530 473-894): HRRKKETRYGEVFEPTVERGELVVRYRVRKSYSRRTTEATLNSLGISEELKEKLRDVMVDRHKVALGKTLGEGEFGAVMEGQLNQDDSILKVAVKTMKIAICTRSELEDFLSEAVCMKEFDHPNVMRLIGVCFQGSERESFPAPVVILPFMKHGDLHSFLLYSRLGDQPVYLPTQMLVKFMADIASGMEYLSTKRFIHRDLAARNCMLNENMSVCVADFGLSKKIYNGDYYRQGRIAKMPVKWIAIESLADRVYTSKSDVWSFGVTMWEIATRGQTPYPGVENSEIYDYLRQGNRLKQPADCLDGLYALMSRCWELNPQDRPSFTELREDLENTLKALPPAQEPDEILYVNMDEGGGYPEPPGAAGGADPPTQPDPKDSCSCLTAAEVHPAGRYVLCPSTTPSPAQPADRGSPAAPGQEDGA
Test: In vitro Axl kinase assay (AlphaScreen), Test (a)
Type: biochemical
Details: test compound at 1 μM; first value quoted
Protocol: Test compounds were prepared as 10 mM stock solutions in dimethylsulphoxide (DMSO) and diluted in DMSO as required. Aliquots (120 nl) of compound dilutions were filled into the wells of a Greiner 384-well low volume (LV) white polystyrene plate (Greiner Bio-one) using acoustic dispensing (Labcyte Echo 550). […]
Number in %, nothing else.

Example entries and their recorded answers appear below.
Nc1ncc(-c2ccc(C(=O)N3CCC4(CCNCC4)CC3)cc2)cc1-c1nc2cccnc2o1 [Example 45A.100]    95.3
Nc1ncc(-c2ccc(OCCCN3CCS(=O)(=O)CC3)cc2)cc1-c1nc2ncccc2o1 [Example 43B.16]    95.3
CN1CCN(c2ccc(-c3cnc(N)c(-c4nc5ccccc5o4)n3)cn2)CC1 [Example 20.7]    99.6
Nc1ncc(-c2cccc(NC(=O)C3CCNCC3)c2)cc1-c1nc2cnccc2o1 [Example 8A.26]    97.9
Nc1ncc(-c2cccc(N3CCCCC3)c2)cc1-c1nc2ccccc2o1 [Example 2.46]    46.4
CC(C)c1ccc2nc(-c3cc(-c4cnn(C5CCN(C)CC5)c4)cnc3N)oc2c1 [Example 7.4]    99.6

Q: Find the measured % Axl tyrosine kinase inhibition at 1 μM concentration of CN1CCC(n2cc(-c3cnc(N)c(-c4nc5ccccc5o4)c3)c(C(=O)N(C)C)n2)CC1 [Example 41.30] with recombinant Axl tyrosine kinase (Homo sapiens, UniProt P30530) as test system.
Ans: 99.5

Q: GET % Axl tyrosine kinase inhibition at 1 μM concentration where system = recombinant Axl tyrosine kinase (Homo sapiens, UniProt P30530) and item = CCS(=O)(=O)c1cccc(-c2cnc(N)c(-c3nc4ccccc4o3)c2)c1 [Example 2.5]
Ans: 73.5

Q: Please indicate recorded % Axl tyrosine kinase inhibition at 1 μM concentration of COc1cc(-c2cnc(N)c(-c3nc4ncccc4o3)c2)ccc1OCCCN1CCS(=O)(=O)CC1 [Example 43C.16] measured with recombinant Axl tyrosine kinase (Homo sapiens, UniProt P30530).
Ans: 98.1

Q: Report value: % Axl tyrosine kinase inhibition at 1 μM concentration, system: recombinant Axl tyrosine kinase (Homo sapiens, UniProt P30530), molecule: Nc1ncc(-c2cnn(C3CCNCC3)c2)cc1-c1nc2ccc(F)c(F)c2o1 [Example 38.1]
Ans: 99.5

----------
Molecular target: recombinant Axl tyrosine kinase (Homo sapiens)
Construct: encompassing amino acids 473 to 894 of Axl; GST (N); made in house; host or cells: SF126 insect cells
Test: In vitro Axl kinase assay (AlphaScreen), Test (a)
Type: biochemical
Details: test compound at 1 μM; first value quoted
Recorded % Axl tyrosine kinase inhibition at 1 μM concentration for the following molecules
Number plus unit, in that order.

These recorded examples may help you get a feel for the data.
Nc1ncc(-c2ccc(C(=O)N3CC[C@H](N4CCCC4)C3)cc2)cc1-c1nc2cccnc2o1 [Example 45A.22]    97.1%
Nc1ncc(-c2cccc(C(=O)NCCN3CCCC3)c2)cc1-c1nc2cnccc2o1    95.3%
CN1CCC(n2cc(-c3cnc(N)c(-c4nc5cnccc5o4)c3)cn2)CC1    99.8%

Next molecule, % Axl tyrosine kinase inhibition at 1 μM concentration to be filled in.
Q: Given `C[C@H](O)C(=O)N1CCC(n2cc(-c3cnc(N)c(-c4nc5cccnc5o4)c3)cn2)CC1` , respond with its % Axl tyrosine kinase inhibition at 1 μM concentration.
Ans: 99.6%

----------
Biological target: recombinant Axl tyrosine kinase (Homo sapiens, UniProt P30530)
Construct: encompassing amino acids 473 to 894 of Axl; GST (N); made in house; host or cells: SF126 insect cells
Assay: In vitro Axl kinase assay (AlphaScreen), Test (a)
Format: biochemical
Settings: test compound at 1 μM; first value quoted
Attribute Measured: % Axl tyrosine kinase inhibition at 1 μM concentration (%)
Could you give me the number in %? Just the number is fine.

// worked examples, % Axl tyrosine kinase inhibition at 1 μM concentration included
N#CCc1ccc(-c2cnc(N)c(-c3nc4cnccc4o3)c2)cc1    99.4
COc1cc(-c2cnc(N)c(-c3nc4ncccc4o3)c2)ccc1OCCC1CCNCC1 [Example 43C.31]    99.3
COc1cc(N2CCNCC2)ccc1-c1cnc(N)c(-c2nc3ccccc3o2)c1    99.0
CN1CCCCC1C1CCCN1C(=O)c1ccc(-c2cnc(N)c(-c3nc4cccnc4o3)c2)cc1 (centres unmarked) [Example 45A.15]    99.7

Q: Quote % Axl tyrosine kinase inhibition at 1 μM concentration with test system recombinant Axl tyrosine kinase (Homo sapiens, UniProt P30530) for Nc1ncc(-c2ccc(C(=O)NCCCN3CC[C@@H](F)C3)cc2)cc1-c1nc2cccnc2o1 [Example 45A.39]
Ans: 98.4

Q: Name the value of % Axl tyrosine kinase inhibition at 1 μM concentration reported for COc1cc(-c2cnc(N)c(-c3nc4ncccc4o3)c2)ccc1OCCN [Example 43C.21] when tested on recombinant Axl tyrosine kinase (Homo sapiens, UniProt P30530).
Ans: 99.3

Q: Name the recorded % Axl tyrosine kinase inhibition at 1 μM concentration of `Nc1ncc(-c2cnn(CCN3CCC(O)CC3)c2)cc1-c1nc2ccccc2o1` , assay system recombinant Axl tyrosine kinase (Homo sapiens, UniProt P30530).
Ans: 99.8

----------
Form field: pIC50 (one value per entry).
Molecular target: Axl expressed on NCI H1299 lung large cell carcinoma cells (Homo sapiens)
Sequence (P30530 26-894): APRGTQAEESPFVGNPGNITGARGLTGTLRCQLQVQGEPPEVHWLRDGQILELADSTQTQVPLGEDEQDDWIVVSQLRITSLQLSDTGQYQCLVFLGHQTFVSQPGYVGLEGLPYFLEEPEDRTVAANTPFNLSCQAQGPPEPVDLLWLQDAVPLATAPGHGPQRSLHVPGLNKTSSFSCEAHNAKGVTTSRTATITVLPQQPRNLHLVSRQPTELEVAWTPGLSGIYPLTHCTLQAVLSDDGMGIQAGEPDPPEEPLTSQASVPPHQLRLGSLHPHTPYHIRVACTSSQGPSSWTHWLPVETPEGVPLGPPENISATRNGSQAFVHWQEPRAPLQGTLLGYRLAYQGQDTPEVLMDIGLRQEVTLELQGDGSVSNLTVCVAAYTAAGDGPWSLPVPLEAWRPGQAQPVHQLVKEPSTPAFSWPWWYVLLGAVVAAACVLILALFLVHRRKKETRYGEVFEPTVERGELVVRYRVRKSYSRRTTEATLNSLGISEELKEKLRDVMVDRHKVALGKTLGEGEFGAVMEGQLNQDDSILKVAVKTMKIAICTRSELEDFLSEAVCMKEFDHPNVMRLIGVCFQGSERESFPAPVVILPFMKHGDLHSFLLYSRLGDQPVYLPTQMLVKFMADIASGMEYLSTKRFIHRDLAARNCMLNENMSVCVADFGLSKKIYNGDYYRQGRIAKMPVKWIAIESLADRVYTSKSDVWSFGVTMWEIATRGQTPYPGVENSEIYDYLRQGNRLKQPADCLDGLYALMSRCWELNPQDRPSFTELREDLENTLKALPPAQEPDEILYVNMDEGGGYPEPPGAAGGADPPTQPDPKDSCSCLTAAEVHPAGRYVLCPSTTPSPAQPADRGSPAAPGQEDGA
Test: Cellular phospho-Axl ELISA assay, Test (b)
pIC50: −log10 of the molar value.

Cc1nn(C2CCNCC2)cc1-c1cnc(N)c(-c2nc3ccccc3o2)c1    ~7.80

Query compound follows.
Q: For `Nc1ncc(-c2cnn(C3CCNCC3)c2)cc1-c1nc2ccccc2s1` , write its pIC50.
Ans: ~7.00

----------
Biological target: c-Met (Homo sapiens)
Sequence (P08581 1074-1366): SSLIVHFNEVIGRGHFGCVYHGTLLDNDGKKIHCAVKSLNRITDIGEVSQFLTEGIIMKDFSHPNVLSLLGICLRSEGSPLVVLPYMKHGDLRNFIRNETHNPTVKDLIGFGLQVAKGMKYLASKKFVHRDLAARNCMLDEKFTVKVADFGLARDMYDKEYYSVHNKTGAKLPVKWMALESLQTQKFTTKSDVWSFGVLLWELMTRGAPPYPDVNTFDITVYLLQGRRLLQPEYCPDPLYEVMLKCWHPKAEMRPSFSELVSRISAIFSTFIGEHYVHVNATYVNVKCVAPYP
pIC50: −log10 of the molar value.
Attribute Measured: pIC50

Q: Query pIC50 for CN1CCC(n2cc(-c3cnc(N)c(-c4nc5ccc(F)cc5o4)c3)cn2)CC1 [Example 7.2]
Ans: ~5.71

----------
Molecular target: recombinant Axl tyrosine kinase (Homo sapiens, UniProt P30530)
Construct: encompassing amino acids 473 to 894 of Axl; GST (N); made in house; host or cells: SF126 insect cells
Experiment: In vitro Axl kinase assay (AlphaScreen), Test (a)
Type: biochemical
Details: test compound at 1 μM; first value quoted; read-out: % Axl tyrosine kinase inhibition at 1 μM concentration
Attribute Measured: inhibition at 1 µM (%)
The reply should be a number in %, with the unit left off.

Examples with their reported inhibition at 1 µM follow.
CC(C)(C)OC(=O)N1CCC(n2cc(-c3cnc(N)c(-c4nc5ccccc5o4)c3)cn2)CC1 [Example 2.2]    99.5
CNC(=O)c1cccc2nc(-c3cc(-c4cnn(C5CCNCC5)c4)cnc3N)oc12 [Example 70]    99.9
Nc1ncc(-c2cnn(CCCO)c2)cc1-c1nc2ccccc2o1 [Example 29.1]    99.7

Q: Recall and state the measured inhibition at 1 µM for Nc1ncc(-c2cnn(C3CCNCC3)c2)cc1-c1nc2ncccc2o1 [Example 10] .
Ans: 98.8

Q: Give me measured inhibition at 1 µM, please, for this molecule: Cc1nn(C2CCNCC2)cc1-c1cnc(N)c(-c2nc3c(F)cccc3o2)c1 [Example 25A]
Ans: 100

Q: Note inhibition at 1 µM for the molecule shown: Nc1ncc(-c2cnn(C3CCNCC3)c2CO)cc1-c1nc2ccccc2o1 [Example 61]
Ans: 99.9

Q: Read the entry Nc1ncc(-c2cnn(C3CCNCC3)c2)cc1-c1nc2ccccc2o1 [Example 2.3] and write its reported inhibition at 1 µM.
Ans: 98.6

Q: For Nc1ncc(-c2cnn(C3CCNCC3)c2)cc1-c1nc2ccccc2s1 [Example 14] , write its inhibition at 1 µM.
Ans: 99.9

Q: Provide only the value of recorded inhibition at 1 µM for COc1cc(N2CCN(C)CC2)ccc1-c1cnc(N)c(-c2nc3ncccc3o2)c1 [Example 25.6]
Ans: 99.5

Q: Tell me measured inhibition at 1 µM for CN1CCN(CCn2cc(-c3cnc(N)c(-c4nc5ccccc5o4)c3)cn2)CC1 [Example 30] please.
Ans: 99.8

Q: Let me know recorded inhibition at 1 µM for CC(C)(C)OC(=O)N1CCC(n2cc(-c3cnc(N)c(-c4nc5ccccc5s4)c3)cn2)CC1 [Example 13] , thanks.
Ans: 95.4

Q: Give the reported value of inhibition at 1 µM for this record: Nc1ncc(-c2cnn(CCN3CCOCC3)c2)cc1-c1nc2ccccc2o1 [Example 26]
Ans: 99.3

Q: // Input: CN1CCC(n2cc(-c3cnc(N)c(-c4nc5c(F)cccc5o4)c3)cn2)CC1 [Example 6] . Output its inhibition at 1 µM only.
Ans: 99.9
